System: HMEC-GFP cells
PROTOCOL_SUMMARY: Scratch wound closure assay, HMEC-GFP
Type: cell-based, human
MEASUREMENT_SETUP: Homo sapiens; wound closure after 24 h, 10% FCS, tested 3.125 μM to 100 μM
pIC50: −log10 of the molar value.
TEST_READOUT: pIC50

>  <MOLECULE_SMILES>
O=C1c2cccc3cc([N+](=O)[O-])cc(c23)C(=O)N1CCCNCCCN1C(=O)c2cccc3cc([N+](=O)[O-])cc(c23)C1=O

>  <INEQUALITY_SYMBOL>
=

>  <QUANTITATIVE_READOUT>
4.90

$$$$
>  <MOLECULE_SMILES>
NCCCN1CCN(CCCN2C(=O)c3cccc4cccc(c34)C2=O)CC1

>  <INEQUALITY_SYMBOL>
=

>  <QUANTITATIVE_READOUT>
4.60

$$$$
>  <MOLECULE_SMILES>
CC(C)(C)OC(=O)NCCCN1C(=O)c2cccc3cc([N+](=O)[O-])cc(c23)C1=O

>  <INEQUALITY_SYMBOL>
<

>  <QUANTITATIVE_READOUT>
4.00

$$$$
>  <MOLECULE_SMILES>
CC(C)(C)OC(=O)NCCCN1CCN(CCCNC(=O)c2ccccc2)CC1

>  <INEQUALITY_SYMBOL>
<

>  <QUANTITATIVE_READOUT>
4.30

$$$$
>  <MOLECULE_SMILES>
CN(C)c1cccc2c(S(=O)(=O)N3CCN(CCOCCO)CC3)cccc12

>  <INEQUALITY_SYMBOL>
<

>  <QUANTITATIVE_READOUT>
4.30

$$$$
>  <MOLECULE_SMILES>
CN(C)c1cccc2c(S(=O)(=O)NCCOCCOCCNC(=O)OC(C)(C)C)cccc12

>  <INEQUALITY_SYMBOL>
=

>  <QUANTITATIVE_READOUT>
5.30

$$$$
>  <MOLECULE_SMILES>
CC(C)(C)OC(=O)NCCCN1CCN(CCCN2C(=O)c3cccc4cc([N+](=O)[O-])cc(c34)C2=O)CC1

>  <INEQUALITY_SYMBOL>
=

>  <QUANTITATIVE_READOUT>
4.60

$$$$
>  <MOLECULE_SMILES>
CN(C)c1cccc2c(S(=O)(=O)NCCCO)cccc12

>  <INEQUALITY_SYMBOL>
=

>  <QUANTITATIVE_READOUT>
4.40

$$$$
>  <MOLECULE_SMILES>
CN(C)c1cccc2c(S(=O)(=O)NCCOCCO)cccc12

>  <INEQUALITY_SYMBOL>
<

>  <QUANTITATIVE_READOUT>
4.30

$$$$

====

# IC50 per record follows
Test system: HMEC-GFP cells
PROTOCOL_SUMMARY: Scratch wound closure assay, HMEC-GFP
Assay type: cell-based, human
MEASUREMENT_SETUP: Homo sapiens; wound closure after 24 h, 10% FCS, tested 3.125 μM to 100 μM
TEST_READOUT: IC50 (µM)

>  <COMPOUND>
CC(C)(C)OC(=O)NCCCN1CCN(CCCNC(=O)OCc2ccc([N+](=O)[O-])cc2)CC1 [COB238]

>  <MEASURED_ON>
HMEC-GFP cells

>  <TEST_READOUT>
IC50

>  <UNIT_SPEC>
µM

>  <INEQUALITY_SYMBOL>
=

>  <QUANTITATIVE_READOUT>
20

$$$$
>  <COMPOUND>
CN(C)c1cccc2c(S(=O)(=O)NCCCNS(=O)(=O)c3cccc4c(N(C)C)cccc34)cccc12 [Compound 05-06-F11]

>  <MEASURED_ON>
HMEC-GFP cells

>  <TEST_READOUT>
IC50

>  <UNIT_SPEC>
µM

>  <INEQUALITY_SYMBOL>
=

>  <QUANTITATIVE_READOUT>
15

$$$$
>  <COMPOUND>
CC(C)(C)OC(=O)NCCCN1CCN(CCCNS(=O)(=O)c2cccc3ccccc23)CC1 [COB235]

>  <MEASURED_ON>
HMEC-GFP cells

>  <TEST_READOUT>
IC50

>  <UNIT_SPEC>
µM

>  <INEQUALITY_SYMBOL>
=

>  <QUANTITATIVE_READOUT>
40

$$$$
>  <COMPOUND>
NCCCN1C(=O)c2cccc3cc([N+](=O)[O-])cc(c23)C1=O [COB277]

>  <MEASURED_ON>
HMEC-GFP cells

>  <TEST_READOUT>
IC50

>  <UNIT_SPEC>
µM

>  <INEQUALITY_SYMBOL>
>

>  <QUANTITATIVE_READOUT>
100

$$$$
>  <COMPOUND>
CN(C)c1cccc2c(S(=O)(=O)NCCCCCN)cccc12 [dansylcadaverine, monodansylcadaverine, reference compound]

>  <MEASURED_ON>
HMEC-GFP cells

>  <TEST_READOUT>
IC50

>  <UNIT_SPEC>
µM

>  <INEQUALITY_SYMBOL>
>

>  <QUANTITATIVE_READOUT>
50

$$$$
>  <COMPOUND>
CN(C)c1ccc2c3c(cccc13)C(=O)N(CCCN1CCN(CCCNC(=O)OC(C)(C)C)CC1)C2=O [COB274]

>  <MEASURED_ON>
HMEC-GFP cells

>  <TEST_READOUT>
IC50

>  <UNIT_SPEC>
µM

>  <INEQUALITY_SYMBOL>
>

>  <QUANTITATIVE_READOUT>
100

$$$$
>  <COMPOUND>
CN(C)c1cccc2c(S(=O)(=O)NCCOCCOCCNS(=O)(=O)c3cccc4c(N(C)C)cccc34)cccc12 [COB295]

>  <MEASURED_ON>
HMEC-GFP cells

>  <TEST_READOUT>
IC50

>  <UNIT_SPEC>
µM

>  <INEQUALITY_SYMBOL>
=

>  <QUANTITATIVE_READOUT>
5

$$$$

====

Test system: HMEC-GFP cells
PROTOCOL_SUMMARY: Scratch wound closure assay, HMEC-GFP
Type: cell-based, human
MEASUREMENT_SETUP: Homo sapiens; wound closure after 24 h, 10% FCS, tested 3.125 μM to 100 μM
# IC50 per record follows
TEST_READOUT: IC50 (µM)

>  <COMPOUND>
CC(C)(C)OC(=O)NCCCN1C(=O)c2cccc3cccc(c23)C1=O

>  <UNIT_SPEC>
µM

>  <INEQUALITY_SYMBOL>
>

>  <QUANTITATIVE_READOUT>
100

$$$$
>  <COMPOUND>
Cc1ccc(S(=O)(=O)NCCCN2CCN(CCCNC(=O)OC(C)(C)C)CC2)cc1

>  <UNIT_SPEC>
µM

>  <INEQUALITY_SYMBOL>
>

>  <QUANTITATIVE_READOUT>
50

$$$$
>  <COMPOUND>
CN(C)c1cccc2c(S(=O)(=O)NCCCN3CCN(CCCNC(=O)OC(C)(C)C)CC3)cccc12

>  <UNIT_SPEC>
µM

>  <INEQUALITY_SYMBOL>
=

>  <QUANTITATIVE_READOUT>
5

$$$$
>  <COMPOUND>
NCCCCN [putrescine, 1,4-diaminobutane, reference compound]

>  <UNIT_SPEC>
µM

>  <INEQUALITY_SYMBOL>
>

>  <QUANTITATIVE_READOUT>
100

$$$$
>  <COMPOUND>
CC(C)(C)OC(=O)NCCCN1CCN(CCCN2C(=O)c3cccc4cccc(c34)C2=O)CC1

>  <UNIT_SPEC>
µM

>  <INEQUALITY_SYMBOL>
=

>  <QUANTITATIVE_READOUT>
18

$$$$
>  <COMPOUND>
CN(C)CCCNS(=O)(=O)c1cccc2c(N(C)C)cccc12

>  <UNIT_SPEC>
µM

>  <INEQUALITY_SYMBOL>
=

>  <QUANTITATIVE_READOUT>
20

$$$$

====

# IC50 per record follows
System: HMEC-GFP cells
PROTOCOL_SUMMARY: Scratch wound closure assay, HMEC-GFP
Format: cell-based, human
MEASUREMENT_SETUP: Homo sapiens; wound closure after 24 h, 10% FCS, tested 3.125 μM to 100 μM
TEST_READOUT: IC50 (µM)

>  <COMPOUND>
CN(C)c1ccc2c3c(cccc13)C(=O)N(CCCNC(=O)OC(C)(C)C)C2=O [COB276]

>  <MEASURED_ON>
HMEC-GFP cells

>  <INEQUALITY_SYMBOL>
>

>  <QUANTITATIVE_READOUT>
100

$$$$
>  <COMPOUND>
NCCCN1C(=O)c2cccc3cccc(c23)C1=O [COB226]

>  <MEASURED_ON>
HMEC-GFP cells

>  <INEQUALITY_SYMBOL>
>

>  <QUANTITATIVE_READOUT>
50

$$$$
>  <COMPOUND>
CC(C)(C)OC(=O)NCCCNCCCN1C(=O)c2cccc3cc([N+](=O)[O-])cc(c23)C1=O [COB281]

>  <MEASURED_ON>
HMEC-GFP cells

>  <INEQUALITY_SYMBOL>
=

>  <QUANTITATIVE_READOUT>
25

$$$$
>  <COMPOUND>
NCCCCCCNS(=O)(=O)c1cccc2c(Cl)cccc12 [Compound W7, reference compound]

>  <MEASURED_ON>
HMEC-GFP cells

>  <INEQUALITY_SYMBOL>
=

>  <QUANTITATIVE_READOUT>
35

$$$$
>  <COMPOUND>
CN(C)c1ccc2c3c(cccc13)C(=O)N(CCCNCCCNC(=O)OC(C)(C)C)C2=O [COB275]

>  <MEASURED_ON>
HMEC-GFP cells

>  <INEQUALITY_SYMBOL>
=

>  <QUANTITATIVE_READOUT>
12.5

$$$$

Reference for the values: paper PMC4467156
